Assay: BSK_3C_Proliferation: Cell Proliferation Assessment in the BioMAP Diversity Plus: 3C Assay (AID 2283006)
Conditions: primary human endothelial cells (HUVEC)
Method: BSK_3C is a cell-based, multiplexed-readout assay that uses umbilical vein endothelium, a human vascular primary cell, with measurements taken at 24 hours after chemical dosing in a 96-well plate.BSK_3C_Proliferation is an assay component measured in the BSK_3C assay. It measures 0.1% sulforhodamine related to cell proliferation using Sulforhodamine staining technology.Data from the assay component BSK_3C_Proliferation was analyzed into 1 assay endpoint. […]
Active and inactive are the calls of the source. How the source made its calls: active means hit-call score of the fitted dose curve at least 0.9, where 1 is the maximum; inactive means score below 0.9.
Form entry, call: pick from active, inactive

{"Molecule": "Nc1nc(N)nc(NC2CC2)n1", "Assigned label": "inactive"}
{"Molecule": "CCC(CC)Nc1c([N+](=O)[O-])cc(C)c(C)c1[N+](=O)[O-]", "Assigned label": "active"}
{"Molecule": "CCOC(=O)COc1cc(-c2nn(C)c(OC(F)F)c2Cl)c(F)cc1Cl", "Assigned label": "active"}

Dear colleague, could you share the recorded outcome for `S=C1NCCN1` when you have a moment?
inactive

Dear colleague, could you share the recorded outcome for CCOP(=S)(Oc1cnc(C(C)(C)C)nc1)OC(C)C (stereo unspecified) when you have a moment?
active

Dear colleague, could you share the recorded outcome for `CCNc1nc(Cl)nc(NC(C)(C)C#N)n1` when you have a moment?
inactive

Dear colleague, could you share the recorded outcome for `CNc1cnn(-c2cccc(C(F)(F)F)c2)c(=O)c1Cl` when you have a moment?
inactive

Dear colleague, could you share the recorded outcome for `CCCOc1nn(C(=O)NS(=O)(=O)c2ccccc2C(=O)OC)c(=O)n1C` when you have a moment?
inactive

* * *

assay: ATG_DR4_LXR_CIS: Attagene CIS-FACTORIAL HepG2 Assay for human Liver X Receptor (LXR), DR4 submotif (AID 2282929); settings: HepG2 Attagene DR4 cis-reporter, mRNA transcription; actives raise or lower the signal
The source made the active and inactive calls. Rule for the calls: active = hit-call score of the fitted dose curve at least 0.9, where 1 is the maximum; inactive = score below 0.9.
Endpoint label: AC50

{"Molecule": "Cc1nn(-c2cc(NS(C)(=O)=O)c(Cl)cc2Cl)c(=O)n1C(F)F", "Test result": "inactive"}
{"Molecule": "CC1=NNC(=O)N(/N=C/c2cccnc2)C1", "Test result": "inactive"}
{"Molecule": "CNc1cnn(-c2cccc(C(F)(F)F)c2)c(=O)c1Cl", "Test result": "inactive"}
{"Molecule": "CCOP(=S)(OCC)OC(Cl)C(Cl)(Cl)Cl (centres undefined)", "Test result": "inactive"}
{"Molecule": "Nc1nc(N)nc(NC2CC2)n1", "Test result": "inactive"}
{"Molecule": "COP(=O)(OC)SCn1c(=O)oc2cc(Cl)cnc21", "Test result": "10.4 µM (active)"}
{"Molecule": "S=C1NCCN1", "Test result": "inactive"}
{"Molecule": "CCC(CC)Nc1c([N+](=O)[O-])cc(C)c(C)c1[N+](=O)[O-]", "Test result": "37.9 µM (active)"}

Return reported AC50. Input molecule: `CCOC(=O)COc1cc(-c2nn(C)c(OC(F)F)c2Cl)c(F)cc1Cl`
inactive

Return reported AC50. Input molecule: CCOP(=O)(NC(C)C)Oc1ccc(SC)c(C)c1 (centres undefined)
inactive

Return reported AC50. Input molecule: CCc1cccc(C)c1N(C(=O)CCl)C(C)COC (centres undefined)
32.1 µM (active)

* * *

assay: ATG_PXRE_CIS: Attagene CIS-FACTORIAL HepG2 Assay for human Pregnane X Receptor Element (PXRE) (AID 2282957); details: HepG2 Attagene CIS-FACTORIAL PXRE reporter, mRNA; actives raise or lower the signal
The source made the active and inactive calls. The calls were made as follows: active = hit-call score of the fitted dose curve at least 0.9, where 1 is the maximum; inactive = score below 0.9.
Form entry, call: pick from active, inactive

Reference set (3 entries):
{"Compound": "CCOP(=S)(OCC)SCCSCC", "Assigned label": "active"}
{"Compound": "CCNc1nc(Cl)nc(NC(C)(C)C#N)n1", "Assigned label": "active"}
{"Compound": "CNC(=O)ON=C(C)SC", "Assigned label": "inactive"}

Please turn your attention to the following entry.
Dear colleague, could you share the recorded outcome for CCOP(=S)(Oc1cnc(C(C)(C)C)nc1)OC(C)C (configuration not stated) when you have a moment?
active

* * *

read-out: growth arrest and DNA damage 45 (GADD45A), GADD45A (gene 1647); test: LTEA_HepaRG_GADD45A: Life Technologies and Expression Analysis (LTEA) Assay for growth arrest and DNA damage 45 (GADD45A) using HepaRG (AID 2283458); conditions: mRNA level, 48 h; actives raise or lower the signal
Activity calls are given as the source filed them. Rule for the calls: active = hit-call score of the fitted dose curve at least 0.9, where 1 is the maximum; inactive = score below 0.9.
Form entry, call: pick from true = active, false = inactive

Reference set (2 entries):
{"Compound": "Nc1c(Cl)cc([N+](=O)[O-])cc1Cl", "Assigned label": "true"}
{"Compound": "FC(F)C(F)(F)OCC(Cn1cncn1)c1ccc(Cl)cc1Cl (stereo unspecified)", "Assigned label": "true"}

Dear colleague, could you share the recorded outcome for `C=C(C)[C@H]1Cc2c(ccc3c2O[C@@H]2COc4cc(OC)c(OC)cc4[C@@H]2C3=O)O1` when you have a moment?
true

Dear colleague, could you share the recorded outcome for `CC1=NNC(=O)N(/N=C/c2cccnc2)C1` when you have a moment?
false

Dear colleague, could you share the recorded outcome for `CCOP(=S)(OCC)Oc1ccc([N+](=O)[O-])cc1` when you have a moment?
false

Dear colleague, could you share the recorded outcome for `Cc1nn(-c2cc(NS(C)(=O)=O)c(Cl)cc2Cl)c(=O)n1C(F)F` when you have a moment?
false

* * *

read-out: Cytochrome P450 (CYP1A1), CYP1A1 (gene 1543); experiment: LTEA_HepaRG_CYP1A1: Life Technologies and Expression Analysis (LTEA) Assay for Cytochrome P450 (CYP1A1) using HepaRG (AID 2283454); conditions: mRNA level, 48 h; actives raise or lower the signal
Activity calls are given as the source filed them. Rule for the calls: active = hit-call score of the fitted dose curve at least 0.9, where 1 is the maximum; inactive = score below 0.9.
Form entry, call: pick from true (1) for active, false (0) for inactive

Reference set (7 entries):
{"Smiles": "COc1cccc(C(=O)NN(C(=O)c2cc(C)cc(C)c2)C(C)(C)C)c1C", "Assigned label": "true (1)"}
{"Smiles": "CCCOc1nn(C(=O)NS(=O)(=O)c2ccccc2C(=O)OC)c(=O)n1C", "Assigned label": "false (0)"}
{"Smiles": "CCCSP(=O)(OCC)SCCC", "Assigned label": "true (1)"}
{"Smiles": "C#CC(C)(C)NC(=O)c1cc(Cl)cc(Cl)c1", "Assigned label": "true (1)"}
{"Smiles": "CC[C@H](C)[C@H]1O[C@]2(C=C[C@@H]1C)C[C@@H]1C[C@@H](C/C=C(\\C)[C@@H](O[C@H]3C[C@H](OC)[C@@H](O[C@H]4C[C@H](OC)[C@@H](NC)[C@H](C)O4)[C@H](C)O3)[C@@H](C)/C=C/C=C3\\CO[C@@H]4[C@H](O)C(C)=C[C@@H](C(=O)O1)[C@]34O)O2", "Assigned label": "true (1)"}
{"Smiles": "O=[N+]([O-])c1cc(C(F)(F)F)c(Cl)c([N+](=O)[O-])c1Nc1ncc(C(F)(F)F)cc1Cl", "Assigned label": "true (1)"}
{"Smiles": "CNc1cnn(-c2cccc(C(F)(F)F)c2)c(=O)c1Cl", "Assigned label": "true (1)"}

Please turn your attention to the following entry.
Dear colleague, could you share the recorded outcome for `CCC(CC)Nc1c([N+](=O)[O-])cc(C)c(C)c1[N+](=O)[O-]` when you have a moment?
true (1)

* * *

assay: CCTE_Shafer_MEA_dev_active_electrodes_number: CCTE's Neural Network Formation Assay for Number of Active Electrodes, Shafer Lab (AID 2284040)
Results filed as inconclusive are left out. The source made the active and inactive calls. The calls were made as follows: active = hit-call score of the fitted dose curve at least 0.9, where 1 is the maximum; inconclusive = response in the unintended direction; inactive = score below 0.9.
Form entry, call: pick from active, inactive

{"Compound": "CC(C)N(C(=O)SCC(Cl)=C(Cl)Cl)C(C)C", "Assigned label": "active"}
{"Compound": "CC(Oc1cccc(Cl)c1)C(=O)O (stereo not drawn)", "Assigned label": "inactive"}
{"Compound": "CN1COCN(Cc2cnc(Cl)s2)C1=N[N+](=O)[O-]", "Assigned label": "inactive"}
{"Compound": "C[N+]1(C)CCCCC1", "Assigned label": "active"}
{"Compound": "COP(=O)(OC)C(O)C(Cl)(Cl)Cl (stereo not drawn)", "Assigned label": "active"}
{"Compound": "CN(C)[C@@H]1C(=O)C(C(N)=O)=C(O)[C@@]2(O)C(=O)C3=C(O)c4c(O)cccc4[C@@](C)(O)[C@H]3[C@H](O)[C@@H]12", "Assigned label": "active"}

Dear colleague, could you share the recorded outcome for `C[Si](Cn1cncn1)(c1ccc(F)cc1)c1ccc(F)cc1` when you have a moment?
active

Dear colleague, could you share the recorded outcome for `CCOP(=O)(OCC)Oc1cc(C)nc(C(C)C)n1` when you have a moment?
inactive

Dear colleague, could you share the recorded outcome for `O=[N+]([O-])c1cc(C(F)(F)F)c(Cl)c([N+](=O)[O-])c1Nc1ncc(C(F)(F)F)cc1Cl` when you have a moment?
active

Dear colleague, could you share the recorded outcome for C#CCC1=C(C)C(OC(=O)C2C(C=C(C)C)C2(C)C)CC1=O (stereo not drawn) when you have a moment?
inactive

Dear colleague, could you share the recorded outcome for `CCOP(=S)(OCC)Oc1ccc2c(C)c(Cl)c(=O)oc2c1` when you have a moment?
active

Dear colleague, could you share the recorded outcome for `CCOP(=S)(OCC)Oc1cc(C)nc(C(C)C)n1` when you have a moment?
active

Dear colleague, could you share the recorded outcome for `CCOP(=S)(OCC)Oc1ccc([N+](=O)[O-])cc1` when you have a moment?
inactive
